experiment: in vitro; conditions: human, hela cells, % viability
Metric: viability at 28.5 h, 10 µM (%)
Record the value in %, omitting the unit from your answer.

Here is how some compounds turned out for viability at 28.5 h, 10 µM.
| Compound | Metric | Unit of measurement | Data value |
| --- | --- | --- | --- |
| Cc1ccc([N+](=O)[O-])cc1NC1OCC(O)C(O)C1O (stereo not drawn) | viability at 28.5 h, 10 µM | % | 98.8 |
| COc1cc(OC)cc(C(=O)N2CCC3(CC2)CC(=O)c2cc(F)cc(F)c2O3)c1 | viability at 28.5 h, 10 µM | % | 108 |
| O=C(Nc1ccc2[nH]ccc2c1)c1cnc(-c2ccc(F)cc2)c(-c2ccncc2)c1 | viability at 28.5 h, 10 µM | % | 91.9 |

Consider now this further compound.
(Q) Requested read-out: viability at 28.5 h, 10 µM. Entry: `CCCCN(C)c1c(C)nc2ccc(C(=O)N(C)CCCN(C)C)cn12`
(A) 103
